Data credit: paper PMC11128890

Target: T1, KDR domain 1 (D1), His-tagged
T1 chain: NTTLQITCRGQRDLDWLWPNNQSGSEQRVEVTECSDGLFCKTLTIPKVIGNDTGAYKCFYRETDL
Experiment: SPR
pKd: −log10 of the molar value.

| binder | pKd |
| --- | --- |
| PCGPCSERRKHLFVQDPQTCKCSCKNTDSRCKARQLELNERTCRCDKPRR (domain or fragment, human, Cloned into the BamHI/EcoRI site of pET28a; PDB 2VGH is the HBD structure used for docking; also called VEGF165-HBD; VEGF165 HBD) [VEGF165 heparin-binding domain (HBD), wild type] | 6.96 |
